assay: Human HepG2 cell viability assay in 384 well format
Format: toxicity, cell-based
Parameters: dose 125 nL, time 70.5 hour; concentration not given beside the values
cond: HepG2 cells, read-out: Inhibition
measurement-kind: cytotoxicity at 70.5 h

| molecule | measurement-kind | assay-result |
| --- | --- | --- |
| CCC(C)(C)NC(=O)C1CC(=O)N(CC2CC2)C1 (configuration not stated) | cytotoxicity at 70.5 h | 27.7% |
| CCOCCOc1ccc(S(=O)(=O)N2CCc3c(nc[nH]c3=O)C2)cc1 | cytotoxicity at 70.5 h | 1.59% |
| O=C(c1ccncc1)N1CCCn2c(CN3CCCC3)nnc2C1 | cytotoxicity at 70.5 h | -9.38% |

Q. Request the reported cytotoxicity at 70.5 h associated with CCCc1nc(N2CCCC(C)C2)c2c(n1)c(C)nn2CC (configuration not stated)
A. -4%

Q. Dear colleague, I am looking for the recorded cytotoxicity at 70.5 h of the following molecule: O=C(NCc1ccccc1F)N1CCCCC1C1OCCO1 (configuration not stated)
A. -17.1%

Q. Please report the recorded cytotoxicity at 70.5 h for Cc1nonc1C1CCCN1CCC(=O)N1CCc2ccccc2C1 (configuration not stated) .
A. 24.4%

Q. Report cytotoxicity at 70.5 h for COc1ccc(N2CCN(C(=O)OC(C)(C)C)C(C(=O)O)C2)cc1 (configuration not stated) please.
A. -0.702%

Q. Give the measured cytotoxicity at 70.5 h of CC(NC(=O)Nc1nccs1)c1ccc(S(C)(=O)=O)cc1 (configuration not stated) .
A. -18.5%

Q. Value lookup for cytotoxicity at 70.5 h; key = CCc1c(C)nc2ccccc2c1N1CCC(O)CC1
A. -3.88%

Q. Could you tell me which cytotoxicity at 70.5 h is on file for CCC(=O)Nc1cccc(C(=O)NCCC2=CSC3=NCCCN23)c1 ?
A. -7.59%

Q. cytotoxicity at 70.5 h for CC(C)C1CN(C(=O)c2cn3ccccc3n2)CCCN1CC1CC1 (configuration not stated) ?
A. -10.1%

Q. Bench note: what cytotoxicity at 70.5 h did Cc1cccc(CN2C(=O)CCC23CCN(Cc2nccn2C)CC3)n1 show?
A. -4.21%

====

Items are presented alongside their recorded TOP.
assay: Human HepG2 cell viability dose-response assay
Assay type: toxicity, cell-based
# output: bare number, no unit

// worked examples, TOP included
| molecule | TOP |
| --- | --- |
| COc1ccccc1N1CCN(C(=O)CSCC2CC2)C(C)C1 (stereo unspecified) | 0 |
| O=C(C[C@@H]1COC[C@H]2CN(C3CCOCC3)C[C@@H]12)Nc1cnccn1 | 0 |
| COCc1noc(-c2ccc(N(C)Cc3ncccc3C)nc2)n1 | 100 |
| CC(C)n1ccc(C(=O)NCC(O)c2c(Cl)cccc2Cl)n1 (stereo unspecified) | 0 |
| c1cncc(CN2CCCn3nnc(CN4CCCCC4)c3C2)c1 | 0 |
| CCCc1nc2c(c(C)c(C)n2Cc2ccccn2)c(N)c1CC | 100 |
| COc1nn(C)c2c1CCCN(C(=O)c1ccc3c(c1)OCO3)C2.O=C(O)C(F)(F)F | 0 |
| C=Cc1ccc(CN2C(=O)C3(CCNCC3)Nc3ccccc32)cc1 | 102 |

Q. State the recorded TOP for this entry: COC[C@H]1CCC[C@]12CN(Cc1cccc(C)n1)CCO2
A. 0

Q. TOP lookup needed for CSc1ccc(NC(=O)Nc2ccc3c(c2)N(S(C)(=O)=O)CC3)cc1 , thanks.
A. 100

Q. Given the molecule Cc1cccc(C)c1Nc1noc2c1CN(C(=O)c1ccnn1C)CC2 , what is its reported TOP?
A. 100

Ref: ChEMBL document CHEMBL3507680
